# Tested system: androgen receptor (AR) (Homo sapiens, UniProt P10275, T878A)
# Sequence (P10275 whole entry T878A): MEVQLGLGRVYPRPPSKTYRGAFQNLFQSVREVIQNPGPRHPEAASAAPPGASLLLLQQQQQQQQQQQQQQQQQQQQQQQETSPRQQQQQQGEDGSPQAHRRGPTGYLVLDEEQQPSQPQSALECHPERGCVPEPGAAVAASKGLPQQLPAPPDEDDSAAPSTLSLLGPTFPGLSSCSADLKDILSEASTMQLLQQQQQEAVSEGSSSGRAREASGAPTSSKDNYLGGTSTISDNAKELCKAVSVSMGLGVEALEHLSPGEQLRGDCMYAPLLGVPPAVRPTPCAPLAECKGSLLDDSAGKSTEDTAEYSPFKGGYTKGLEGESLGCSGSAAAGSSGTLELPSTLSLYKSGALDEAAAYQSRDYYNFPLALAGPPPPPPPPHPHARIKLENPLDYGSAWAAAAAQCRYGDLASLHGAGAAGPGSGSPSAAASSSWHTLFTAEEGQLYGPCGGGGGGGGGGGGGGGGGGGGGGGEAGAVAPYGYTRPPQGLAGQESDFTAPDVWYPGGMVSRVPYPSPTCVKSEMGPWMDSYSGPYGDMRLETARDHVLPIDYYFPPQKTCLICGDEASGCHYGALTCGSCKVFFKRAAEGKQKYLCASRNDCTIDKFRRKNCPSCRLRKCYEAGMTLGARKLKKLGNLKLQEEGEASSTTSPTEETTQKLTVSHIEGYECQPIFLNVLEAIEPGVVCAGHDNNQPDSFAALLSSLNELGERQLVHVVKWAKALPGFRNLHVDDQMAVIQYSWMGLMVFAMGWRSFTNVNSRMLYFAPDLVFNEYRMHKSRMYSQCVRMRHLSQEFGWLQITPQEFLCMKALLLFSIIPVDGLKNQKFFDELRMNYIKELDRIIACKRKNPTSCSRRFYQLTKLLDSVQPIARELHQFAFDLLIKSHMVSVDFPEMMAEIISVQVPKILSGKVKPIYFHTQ
# Experiment: Androgen-induced PSA (6.1 kb)-luciferase reporter assay in LNCaP cells (R1881 1 nM)
# Type: cell-based
# Design: endogenous in cells; host or cells: LNCaP
# Study conditions: 24 h, read-out: PSA-Luc IC50 Range
pIC50: −log10 of the molar value.
Exercise: state measured pIC50 for each of the compounds provided.

Some entries whose results are on file:
- Compound: "CC(C)(c1ccc(OCc2ccnc(NS(C)(=O)=O)n2)cc1)c1cnc(N2CC3(CCC3)C2)c(Cl)c1 [Compound A106]"
  pIC50: "< 5.70"
- Compound: "CS(=O)(=O)Nc1ncc(Cn2cc3ccc(-c4cc(Cl)c(OCCCl)c(C#N)c4)cc3n2)cn1 [Compound A160]"
  pIC50: "< 5.70"
- Compound: "CS(=O)(=O)Nc1nccc(COc2ccc3c(ccn3-c3cc(C#N)c(OCCCl)c(C(F)(F)F)c3)c2)n1 [Compound A21]"
  pIC50: "5.70 to 6.30"
- Compound: "CS(=O)(=O)Nc1nccc(COc2ccc3c(c2)CCCC3c2cc(Cl)c(OCCCl)c(C#N)c2)n1 (centres unmarked) [Compound A33]"
  pIC50: "5.70 to 6.30"
- Compound: "CCCOc1ncc(C(C)(C)c2ccc(OCc3ccnc(NS(C)(=O)=O)n3)cc2)cc1Cl [Compound A104]"
  pIC50: "< 5.70"

Batch: pIC50 for all items listed.
1. CC(C)(c1ccc(-c2ccc3nc(NS(C)(=O)=O)ccc3n2)cc1)c1cc(Cl)c(OCCCl)c(C#N)c1 [Compound A191]
2. CS(=O)(=O)Nc1nccc(COc2ccc(-n3ccc4c(Cl)c(OCCCl)c(C#N)cc43)cc2)n1 [Compound A26]
3. Cc1nc(NS(C)(=O)=O)ncc1COc1ccc(C(C)(C)c2cc(Cl)c(OCCCl)c(C#N)c2)cc1 [Compound A91]
4. CS(=O)(=O)Nc1nccc(COc2ccc3c(-c4cc(Cl)c(OCCCl)c(C#N)c4)ncnc3c2)n1 [Compound A18]
5. CS(=O)(=O)CCOc1c(Cl)cc(-n2ccc3cc(OCc4ccnc(NS(C)(=O)=O)n4)ccc32)cc1C#N [Compound A72]
6. CCC(O)COc1c(Cl)cc(C(C)(C)c2ccc(OCc3ccnc(NS(C)(=O)=O)n3)cc2)cc1C#N (centres unmarked) [Compound A174]

Response:
> 6.30
< 5.70
5.70 to 6.30
< 5.70
< 5.70
< 5.70

Ref: patent US20220380378A1
